- test details: Binding affinity to CLPB (unknown origin) expressed in Escherichia coli MC4100 assessed as change in melting temperature at 100 to 200 uM after 30 mins by DSF analysis in presence of ATPgammaS
The following compounds are listed with their measured ΔTm values.
Output spec: scalar in °C, unitless text.

Study these solved cases before continuing.
> print(dat)
                                item.smiles  units.text  data.value
1  CCn1c(=O)c(C(=O)Nc2cccc(O)c2)c(O)c2ccccc21          °C        -0.8
2  COCCCN1C(=O)C(=C2C(=O)Nc3ccc(Br)cc32)SC1=S          °C        14.3
3  O=C1Nc2ccc(Br)cc2/C1=C1/SC(=O)N(c2ccccc2)C1=O          °C        14.6
4     C=CCN1C(=O)C(=C2C(=O)Nc3ccccc32)SC1=S          °C         5.4
5  O=C(Nc1ccccc1)OCCSC(=O)Nc1ccc(Cl)c(Cl)c1          °C           2

Incoming: For the compound O=C1Nc2ccc([N+](=O)[O-])cc2/C1=C1\SC(=O)N(c2ccc(Cl)cc2)C1=O , what ΔTm is on record?
Outgoing: 12.3

Incoming: For the compound O=Cc1cc(Cc2ccccc2Cl)cc([N+](=O)[O-])c1O , what ΔTm is on record?
Outgoing: 4.9

Incoming: For the compound CC(C)[C@H](C(=O)O)N1C(=O)/C(=C2/C(=O)Nc3ccc(Br)cc32)SC1=S , what ΔTm is on record?
Outgoing: 19.3

Incoming: For the compound O=C(Nc1cccc([N+](=O)[O-])c1)c1sc2cccc(Cl)c2c1Cl , what ΔTm is on record?
Outgoing: 4.2

Incoming: For the compound C(=C\C=C\Nc1ccccc1)/C=C/Nc1ccccc1 , what ΔTm is on record?
Outgoing: 13.3

Incoming: For the compound COc1cc(/C=C2/C(=O)NN(c3ccc(Cl)cc3)C2=O)ccc1OCc1ccc(F)cc1 , what ΔTm is on record?
Outgoing: 7.1

###

- test details: Inhibition of DNAK (unknown origin) assessed as reactivation of luciferase aggregates after 2 hrs
The following molecules are listed with their measured pIC50 values.
Please express pIC50 as -log10 of the molar concentration.

> print(dat)
                                item.smiles  metric  data.value
1         C(=C\C=C\Nc1ccccc1)/C=C/Nc1ccccc1   pIC50        4.00
2  O=C1Nc2ccc([N+](=O)[O-])cc2/C1=C1\SC(=O)N(c2ccc(Cl)cc2)C1=O   pIC50        4.40
3  O=C1Nc2ccc(Br)cc2/C1=C1/SC(=O)N(c2ccccc2)C1=O   pIC50        4.07

Incoming: For the molecule O=Cc1cc(Cc2ccccc2Cl)cc([N+](=O)[O-])c1O , what pIC50 is on record?
Outgoing: 5.40

###

- test details: Inhibition of DNAK (unknown origin) assessed as reactivation of luciferase aggregates after 2 hrs in presence of Tween 80
metric: pIC50
Please express pIC50 as -log10 of the molar concentration.

Study these solved cases before continuing.
> print(dat)
                                item.smiles  metric  data.value
1  O=C1Nc2ccc(Br)cc2/C1=C1/SC(=O)N(c2ccccc2)C1=O   pIC50        4.30
2  O=C1Nc2ccc([N+](=O)[O-])cc2/C1=C1\SC(=O)N(c2ccc(Cl)cc2)C1=O   pIC50        4.22

// moving on: another record for pIC50
Incoming: For the compound O=Cc1cc(Cc2ccccc2Cl)cc([N+](=O)[O-])c1O , what pIC50 is on record?
Outgoing: 5.22

###

- test details: Activation of CLPB (unknown origin) expressed in Escherichia coli MC4100 using alpha-casein as substrate at 1 to 100 uM by spectrophotometric analysis
The source made the active and inactive calls. The rule behind the calls is not given here.
metric: Activity

> print(dat)
                                item.smiles  data.value
1  O=C1Nc2ccc(Br)cc2/C1=C1/SC(=O)N(c2ccccc2)C1=O      Active
2  O=C1Nc2ccc([N+](=O)[O-])cc2/C1=C1\SC(=O)N(c2ccc(Cl)cc2)C1=O      Active
3  COc1cc(/C=C2/C(=O)NN(c3ccc(Cl)cc3)C2=O)ccc1OCc1ccc(F)cc1      Active
4         C(=C\C=C\Nc1ccccc1)/C=C/Nc1ccccc1      Active

###

The following compounds are listed with their measured pIC50 values.
- test details: Inhibition of DNAK/CLPB (unknown origin) assessed as reactivation of malate dehydrogenase aggregates after 2 hrs in presence of Tween 80
Please express pIC50 as -log10 of the molar concentration.

Study these solved cases before continuing.
> print(dat)
                                item.smiles  data.value
1  O=C1Nc2ccc(Br)cc2/C1=C1/SC(=O)N(c2ccccc2)C1=O        4.82
2  O=C(Nc1ccccc1)OCCSC(=O)Nc1ccc(Cl)c(Cl)c1        4.82
3  O=C1Nc2ccc([N+](=O)[O-])cc2/C1=C1\SC(=O)N(c2ccc(Cl)cc2)C1=O        5.22
4  COc1cc(/C=C2/C(=O)NN(c3ccc(Cl)cc3)C2=O)ccc1OCc1ccc(F)cc1        4.96
5  CCn1c(=O)c(C(=O)Nc2cccc(O)c2)c(O)c2ccccc21        4.40

// moving on: another record for pIC50
Incoming: For the compound O=Cc1cc(Cc2ccccc2Cl)cc([N+](=O)[O-])c1O , what pIC50 is on record?
Outgoing: 5.22

###

- test details: Binding affinity to CLPB (unknown origin) expressed in Escherichia coli MC4100 assessed as change in melting temperature at 100 to 200 uM after 30 mins by DSF analysis in presence of ATP
metric: ΔTm (°C)
Output spec: scalar in °C, unitless text.

Study these solved cases before continuing.
> print(dat)
                                item.smiles  data.value
1   O=Cc1cc(Cc2ccccc2Cl)cc([N+](=O)[O-])c1O         7.2
2  O=C(Nc1cccc([N+](=O)[O-])c1)c1sc2cccc(Cl)c2c1Cl         1.8
3         C(=C\C=C\Nc1ccccc1)/C=C/Nc1ccccc1        11.9
4  CCn1c(=O)c(C(=O)Nc2cccc(O)c2)c(O)c2ccccc21         2.2
5  CC(C)[C@H](C(=O)O)N1C(=O)/C(=C2/C(=O)Nc3ccc(Br)cc32)SC1=S        22.1

Incoming: For the compound Cc1c(Cl)c([N+](=O)[O-])nn1CC(=O)Nc1cc(Oc2ccc(Cl)cc2Cl)cc([N+](=O)[O-])c1 , what ΔTm is on record?
Outgoing: 2

Incoming: For the compound O=C1Nc2ccc(Br)cc2/C1=C1/SC(=O)N(c2ccccc2)C1=O , what ΔTm is on record?
Outgoing: -0.2

Incoming: For the compound C=CCN1C(=O)C(=C2C(=O)Nc3ccccc32)SC1=S , what ΔTm is on record?
Outgoing: 7.9

Incoming: For the compound COc1cc(/C=C2/C(=O)NN(c3ccc(Cl)cc3)C2=O)ccc1OCc1ccc(F)cc1 , what ΔTm is on record?
Outgoing: 1.2

Incoming: For the compound COCCCN1C(=O)C(=C2C(=O)Nc3ccc(Br)cc32)SC1=S , what ΔTm is on record?
Outgoing: 13.1

Incoming: For the compound O=C(Nc1ccccc1)OCCSC(=O)Nc1ccc(Cl)c(Cl)c1 , what ΔTm is on record?
Outgoing: 0.8

###

- test details: Cytotoxicity against CHO cells assessed as cell viability at 40 to 100 uM after 72 hrs by tetrazolium reduction assay relative to control
- Format: cell-based, Cricetulus griseus
- condition info: chinese hamster, read-out: Activity
metric: viability at 72 h, up to 100 µM (%)
Output spec: scalar in %, unitless text.

> print(dat)
                                item.smiles  units.text  data.value
1  O=C(Nc1ccccc1)OCCSC(=O)Nc1ccc(Cl)c(Cl)c1           %          50

Incoming: For the compound O=Cc1cc(Cc2ccccc2Cl)cc([N+](=O)[O-])c1O , what viability at 72 h, up to 100 µM is on record?
Outgoing: 50

###

The following compounds are listed with their measured IC50 values.
- test details: Inhibition of DNAK/CLPB (unknown origin) assessed as reactivation of malate dehydrogenase aggregates after 2 hrs

Study these solved cases before continuing.
> print(dat)
                                item.smiles  metric  data.value
1  COCCCN1C(=O)C(=C2C(=O)Nc3ccc(Br)cc32)SC1=S    IC50    > 100 µM
2  CC(C)[C@H](C(=O)O)N1C(=O)/C(=C2/C(=O)Nc3ccc(Br)cc32)SC1=S    IC50    > 100 µM
3     C=CCN1C(=O)C(=C2C(=O)Nc3ccccc32)SC1=S    IC50    > 100 µM
4         C(=C\C=C\Nc1ccccc1)/C=C/Nc1ccccc1    IC50    > 100 µM

Incoming: For the compound COc1cc(/C=C2/C(=O)NN(c3ccc(Cl)cc3)C2=O)ccc1OCc1ccc(F)cc1 , what IC50 is on record?
Outgoing: 7.5 µM

Incoming: For the compound Cc1c(Cl)c([N+](=O)[O-])nn1CC(=O)Nc1cc(Oc2ccc(Cl)cc2Cl)cc([N+](=O)[O-])c1 , what IC50 is on record?
Outgoing: > 100 µM
